# Tested on: human dermal fibroblast cells
# Assay Notes: Secreted hyaluronic acid (HA) in media of human dermal fibroblasts (HA Elisa kit)
# Format: cell-based
# Test Context: peptide concentration 0.001%; 48 h; percent change relative to vehicle control
Residues, ends and D or L forms follow the SMILES beside them.
The following compounds are shown together with reported Increase in HA Production values.
Observed Property: Increase in HA Production

[
  {
    "Compound": "CC(C)CC(N)C(=O)NC(CCCNC(=N)N)C(=O)NC(CC(C)C)C(=O)NC(CCCCN)C(=O)O (stereo not drawn) [LRLK (SEQ ID NO: 1), Leu-Arg-Leu-Lys] (H-LRLK-OH; configuration not given here)",
    "Result": "+20-50%"
  },
  {
    "Compound": "CC(NC(=O)CNC(=O)C(CC(=O)O)NC(=O)C(CCCCN)NC(=O)C(C)NC(=O)C(N)C(C)O)C(=O)NC(C(=O)O)C1CCCN1 (stereo not drawn) [TAKDGAP (SEQ ID NO: 3), Thr-Ala-Lys-Asp-Gly-Ala-Pro]",
    "Result": "+50-90%"
  },
  {
    "Compound": "CCC(C)C(NC(=O)C(CCCCN)NC(=O)C(NC(=O)C(NC(=O)C(N)CCCNC(=N)N)C(C)O)C1CCCN1)C(=O)NC(CO)C(=O)NC(CCCCN)C(=O)NC(C(=O)NC(C(=O)NC(CCCCN)C(=O)NC(Cc1ccccc1)C(=O)NC(CCC(=O)O)C(=O)NC(CC(C)C)C(=O)NC(CO)C(=O)NCC(=O)O)C(C)CC)C1CCCN1 (stereo not shown) [RTPKISKPIKFELSG (SEQ ID NO: 5)]",
    "Result": "+20-50%"
  },
  {
    "Compound": "CCC(C)C(N)C(=O)NC(Cc1ccccc1)C(=O)NCC(=O)NCC(=O)NC(C(=O)NC(C(=O)NC(Cc1ccc(O)cc1)C(=O)NC(CCCNC(=N)N)C(=O)NC(CO)C(=O)O)C(C)C)C(C)O (stereo not drawn) [IFGGTVYRS (SEQ ID NO: 4), Ile-Phe-Gly-Gly-Thr-Val-Tyr-Arg-Ser] (H-IFGGTVYRS-OH; configuration not given here)",
    "Result": "+50-90%"
  }
]
